Origin of measurements: ChEMBL document CHEMBL1201862

GI50 by entry:
Test system: SNB-19
Experiment: NCI tumour cell line growth inhibition, 48 h
The source made the active and inactive calls. Cut-off read from the data, not from the text of the source: active = GI50 up to about 1.1 µM and inactive = higher.

Below, each entry is followed by its recorded GI50 result.
INSERT INTO results (molecule, reading) VALUES
  ('OCC(CCc1ccccc1I)C1=CCC2(CC1)OCCO2 (centres undefined)', '18.5 µM (inactive)'),
  ('C=CCN1/C(=C(\C#N)c2nc3ccccc3[nH]2)Sc2c1nc[nH]c2=O', '> 100 µM (inactive)'),
  ('CCCC(=O)Nc1cc(C(=O)N2C[C@@H]3C[C@]34C2=CC(=O)c2[nH]cc(C)c24)n(COC)c1', '12.4 µM (inactive)'),
  ('O=CC(O)C(O)C1OC(=O)c2cc(O)c(O)c(O)c2C2=C(O)C(O)=C3OC(=O)c4c(c(O)c(O)c5c4C3C2C(=O)O5)-c2c(cc(O)c(O)c2O)C(=O)OCC1O (centres undefined)', '57.8 µM (inactive)'),
  ('CC1C(c2ccc3c(c2)OCO3)c2cc3c(cc2OC1N1CCOCC1)OCO3 (centres undefined)', '16.4 µM (inactive)');

Moving on to the next molecule.
# input Please give the documented GI50 of N=C(N)N/N=C/c1ccc(O)c(C(=O)O)c1
# output > 100 µM (inactive)

###

Test system: HT-29
Experiment: NCI tumour cell line growth inhibition, 48 h
Calls of active or inactive are those of the source. Cut-off read from the data, not from the text of the source: active = GI50 up to about 1.1 µM and inactive = higher.
Returns: one label drawn from active, inactive

Example cases with answers are listed next.
INSERT INTO results (compound, label_value) VALUES
  ('CC(C)(C)c1cc(C(O)(C(F)(F)F)C(F)(F)F)c2c(c1)C(C(F)(F)F)(C(F)(F)F)OC(C(C)(C)C)N2 (centres undefined)', 'inactive'),
  ('Cc1ccccc1NC(=O)Cc1csc(N/N=C2\NC(=O)/C(=C/c3cccc([N+](=O)[O-])c3)S2)n1', 'inactive'),
  ('CCN1CCC(O)(/C=C/c2cccc(C)c2)C(C(=O)/C=C/c2cccc(C)c2)C1 (centres undefined)', 'inactive'),
  ('N=C(N)C(/N=N\c1ccccc1)C(=N)N (centres undefined)', 'inactive'),
  ('C=CCN(c1cc(OCc2ccccc2)c(NC(C)=O)cc1[N+](=O)[O-])S(C)(=O)=O', 'inactive');

# input Per the records of this test, what outcome belongs to Cn1c(-c2ccc(/N=N/Nc3ccc(-c4n[nH]c(=S)n4C)cc3)cc2)n[nH]c1=S ?
# output inactive

# input Per the records of this test, what outcome belongs to COc1cc(S(=O)(=O)Nc2nc(-c3ccc(/N=C/c4ccccc4O)cc3)cs2)ccc1Cl ?
# output inactive

# input Per the records of this test, what outcome belongs to O=C1C(Cl)N(c2cccc(Cl)c2)C1c1c[nH]c2ccccc12 (centres undefined) ?
# output inactive

# input Per the records of this test, what outcome belongs to CN(C)CCCNc1ccc([N+](=O)[O-])c2nc3ccccc3c(N)c12 ?
# output active

###

GI50 by entry:
Tested on: A498
Experiment: NCI tumour cell line growth inhibition, 48 h
Active and inactive are the calls of the source. Cut-off read from the data, not from the text of the source: active = GI50 up to about 1.1 µM and inactive = higher. Where a SMILES comes first, the peptide text is derived from it. [ ]: non-standard residue; d: D form. The star is where a group is joined. Phe(2-OMe) = COc1ccccc1C[CH](N)C(=O)O; Cbz = O=C(OCc1ccccc1)*; OBn = c1ccc(CO*)cc1

Below, each entry is followed by its recorded GI50 result.
INSERT INTO assay_data (compound, reading) VALUES
  ('O=C1C=C(N2CCN(c3ncccn3)CC2)C(=O)c2c(O)ccc(O)c21', '> 100 µM (inactive)'),
  ('CC(C)(C)/N=N/C(C)(C)N=C=O', '> 100 µM (inactive)'),
  ('Brc1ccc(-c2nc(-c3ccc(Br)cc3)n(-c3ccccc3)n2)cc1', '> 100 µM (inactive)'),
  ('COC(=O)C(Cc1ccccc1OC)NC(=O)C(CC(=O)OCc1ccccc1)NC(=O)OCc1ccccc1 (stereo not given) (Cbz-Asp(OBn)-[Phe(2-OMe)]-OMe; configuration not given here)', '88.1 µM (inactive)'),
  ('COc1cccc2c1C(=O)c1c(O)c3c(c(O)c1C2=O)C[C@@](O)(C(C)=O)CC3OC1CC(OC2CC(N)C(O)C(C)O2)C(O)C(C)O1 (stereo not given in full)', '> 100 µM (inactive)'),
  ('C=CC(=O)NCNC(=O)C=C', '> 100 µM (inactive)'),
  ('N#CC1=C(C#N)/C(=C(\C#N)C(C#N)C#N)N=C1N', '25.9 µM (inactive)'),
  ('CCN(CC)CCNC(=O)c1ccc(C)c(OCc2ccccc2)c1[N+](=O)[O-]', '50 µM (inactive)');

# input # assay system A498: give GI50 of O=C1ON(Cc2ccccc2)C(c2ccccc2)N1c1ccccc1 (stereo not given)
# output > 100 µM (inactive)

# input # assay system A498: give GI50 of C=CC[P@]1(=O)O[C@H](c2ccccc2)C(C)N1C(C)C (stereo not given in full)
# output > 100 µM (inactive)

###

Tested on: HT-29
Experiment: NCI tumour cell line growth inhibition, 48 h
The source made the active and inactive calls. No stated cut-off is given here; in the data, active = GI50 up to about 1.1 µM and inactive = higher.
recorded.metric: GI50

Below, each entry is followed by its recorded GI50 result.
INSERT INTO assay_data (compound, reading) VALUES
  ('COc1cc(O)c2c(=O)cc(-c3ccc(O)cc3O)oc2c1CC=C(C)C [ARTOCARPETIN A]', '4.35 µM (inactive)'),
  ('N#Cc1c(-c2ccc(Cl)cc2Cl)nc2[nH]nc(S)n2c1=O', '> 100 µM (inactive)'),
  ('COc1ccc2c(c1)C(O)(C(F)(F)F)c1cc(C(=O)C(F)(F)F)c3ccccc3c1N2 (stereo not given)', '7.73 µM (inactive)'),
  ('C=CC[P@]1(=O)O[C@H](c2ccccc2)C(C)N1C(C)C (stereo not given in full)', '> 100 µM (inactive)'),
  ('COc1cc2c3c(c1)c1cc(OC)c(OC)cc1c[n+]3CC2', '23 µM (inactive)'),
  ('Cc1cc(C)n(C(C)(C(=O)Cc2ccccc2)n2nc(C)cc2C)n1', '> 100 µM (inactive)'),
  ('COc1ccc(CCNC(=O)[C@H]2CCCC[C@@H]2CCO)cc1OC', '> 100 µM (inactive)'),
  ('COC(=O)C1([C@@H]2C[C@@H](O)[C@]3(C)CC/C=C(\C)CCC[C@H](C)[C@H](O)[C@@H]2O3)CC1', '42.5 µM (inactive)');

# input Please give the documented GI50 of OCCN(C1=NCCN1)/[N+](=C/c1ccc(Cl)cc1)[CH-]c1ccc(Cl)cc1
# output 94.8 µM (inactive)

# input Please give the documented GI50 of NCCc1c[nH]c2ccc(OC(=O)C(=O)O)cc12
# output > 100 µM (inactive)

# input Please give the documented GI50 of Brc1ccc(-c2nc(-c3ccc(Br)cc3)n(-c3ccccc3)n2)cc1
# output 26.9 µM (inactive)

# input Please give the documented GI50 of O=[N+]([O-])c1ccc(N2CCC(CCCC3CCN(c4ccc([N+](=O)[O-])cc4[N+](=O)[O-])CC3)CC2)c([N+](=O)[O-])c1
# output 8.11 µM (inactive)

# input Please give the documented GI50 of COc1cc2oc(=O)ccc2cc1C1OC(=O)C2OC21C (stereo not given)
# output > 100 µM (inactive)

# input Please give the documented GI50 of CC(C)CCCC(C)[C@H]1CCC2[C@@H]3CCC4Cc5nc6c(nc5C[C@]4(C)C3CC[C@@]21C)CC1CC[C@@H]2C(CC[C@@]3(C)C2CC[C@@H]3O)[C@@]1(C)C6 (stereo not given in full)
# output > 100 µM (inactive)

# input Please give the documented GI50 of CNC(=O)OCc1c(COC(=O)NC)c(-c2ccc(Cl)c(Cl)c2)n2c1SCC2
# output 10 µM (inactive)

###

Tested on: RPMI-8226
Test: NCI tumour cell line growth inhibition, 48 h
Calls of active or inactive are those of the source. No stated cut-off is given here; in the data, active = GI50 up to about 1.1 µM and inactive = higher.
Returns: one label drawn from YES (active), NO (inactive)

Example cases with answers are listed next.
INSERT INTO assay_data (compound, label_value) VALUES
  ('Nc1cccnc1NCC1(CO)CCCC1', 'NO'),
  ('COC(CN1C=C(Sc2ccccc2)CC1)OC', 'NO'),
  ('CCOC(=O)Nc1nn[nH]c1Cl', 'NO');

Below: the item to evaluate.
# input Per the records of this test, what outcome belongs to O=C(CC(C(=O)c1cccs1)c1ccc2c(c1)OCO2)c1ccc(Br)cc1 (stereo unspecified) ?
# output NO

###

Tested on: NCI-H522
Assay: NCI tumour cell line growth inhibition, 48 h
Active and inactive are the calls of the source. Rule as the data show it: active = GI50 up to about 1.1 µM and inactive = higher.
Returns: one label drawn from 1.0 = active, 0.0 = inactive

Example cases with answers are listed next.
INSERT INTO measurements (compound, label_value) VALUES
  ('COc1cc(/C=C/C(=O)C(C)(C)C)cc(OC)c1OC', 0.0),
  ('CCc1n[nH]c(=O)n1CCCCCCCCCCCCn1c(CC)n[nH]c1=O', 0.0),
  ('O=C1c2ccccc2CC12Cc1ccccc1C2', 0.0),
  ('Cc1ccc(NC(=O)CSc2nc(O)nc3[nH]cnc23)cc1', 0.0),
  ('NCCCCNCCCN1CCOC1=O', 0.0),
  ('COC(=O)C1C(O)CCC2CN3CCc4c([nH]c5ccccc45)C3CC21 (stereo unspecified)', 0.0),
  ('CC[C@]12CCCN3CCc4c(n(c5ccccc45)C(=O)C1)[C@@H]32', 0.0),
  ('Cc1cccc2nc3cccc(C(=O)NCCC[N+](C)(CCCNC(=O)c4cccc5nc6cccc(C)c6nc45)Cc4c([N+](=O)[O-])ncn4C)c3nc12', 0.0),
  ('Cn1c(=O)c2[nH]cnc2n(CC(=O)O)c1=O', 0.0),
  ('Cc1ccc(NC(=O)c2cc3ccccc3c(/N=N\c3ccccc3O)c2O)c(C)c1', 1.0);

# input Per the records of this test, what outcome belongs to Cn1c(-c2ccc(/N=N/Nc3ccc(-c4n[nH]c(=S)n4C)cc3)cc2)n[nH]c1=S ?
# output 0.0

# input Per the records of this test, what outcome belongs to CC(C)/C=N\N1C(N)=C(C#N)C(C#N)(C#N)C1C(C)C (stereo unspecified) ?
# output 0.0

# input Per the records of this test, what outcome belongs to CCOC(=O)C(Cc1ccccc1)NC(=O)OC(C)(C)C (stereo unspecified) ?
# output 0.0

# input Per the records of this test, what outcome belongs to COC(=O)C(=O)C(C(=O)C=C(C)C)C(=O)C(=O)Nc1ccc(C)cc1C (stereo unspecified) ?
# output 0.0

# input Per the records of this test, what outcome belongs to Cc1cc(N2CCOCC2)nc2ccc(Cc3ccc4nc(N5CCOCC5)cc(C)c4c3)cc12 ?
# output 0.0

# input Per the records of this test, what outcome belongs to Cc1ccc(S(=O)(=O)N2CCC[C@@H]2C(=O)O[C@@H]2CCC3CC=CC32)cc1 (stereo partly specified) ?
# output 0.0

# input Per the records of this test, what outcome belongs to N#Cc1c(-c2ccc(Cl)cc2Cl)nc2[nH]nc(S)n2c1=O ?
# output 0.0

# input Per the records of this test, what outcome belongs to Nc1nc(NCCO)c(N=O)c(=O)[nH]1 ?
# output 0.0

# input Per the records of this test, what outcome belongs to COc1cc2c3c(n(C)c(=O)c2cc1OC)-c1cc2c(cc1/C3=C\CCCCCBr)OCO2 ?
# output 0.0

# input Per the records of this test, what outcome belongs to O=[N+]([O-])c1ccc(N/N=C/c2ccc(OCCCCCCCCCCCO)cc2)c([N+](=O)[O-])c1 ?
# output 0.0

# input Per the records of this test, what outcome belongs to c1ccc(N/N=N/c2ccc(-c3nc4ccccc4[nH]3)cc2)nc1 ?
# output 0.0
